target: Human immunodeficiency virus type 1 integrase (Human immunodeficiency virus 1, UniProt Q7ZJM1); experiment: Inhibition of HIV1 integrase 3'-processing step
Sequence (Q7ZJM1 whole entry): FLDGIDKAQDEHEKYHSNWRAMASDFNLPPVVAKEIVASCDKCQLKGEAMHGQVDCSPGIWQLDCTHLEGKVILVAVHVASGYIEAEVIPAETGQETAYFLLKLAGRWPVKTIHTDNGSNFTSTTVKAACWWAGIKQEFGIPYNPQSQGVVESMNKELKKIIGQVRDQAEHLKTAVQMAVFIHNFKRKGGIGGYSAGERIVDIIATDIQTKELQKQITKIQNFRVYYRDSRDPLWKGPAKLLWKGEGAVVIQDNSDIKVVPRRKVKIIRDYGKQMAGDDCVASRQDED
Listed compounds paired with reported pIC50
Scale: negative log10 of molar concentration, which is what pIC50 denotes.

Here's what some known entries look like.
{"columns": ["structure-as-smiles", "pIC50"],
 "data": [
  ["O=C(O)C(=O)/C=C(/O)c1nc2c(=O)n(Cc3ccccc3)cnc2n1Cc1ccccc1", 4.50],
  ["O=C(O)C(=O)/C=C(/O)c1nc2cncnc2n1Cc1ccccc1", 4.00],
  ["O=C(O)C(=O)/C=C(\\O)c1ncnc2c1ncn2Cc1ccccc1", 3.00]
]}

Then this compound:
Query: What does the data say about its pIC50? Entry: O=C(O)C(=O)/C=C(\O)c1nc2c(ncn2Cc2ccccc2)c(=O)n1Cc1ccccc1
Reply: 4.52
